Measured values drawn from PubChem BioAssay (NCATS) for this set.

assay: Validation qHTS assay for inhibitors of Activation Induced Cytidine Deaminase (AID): UDG Counterscreen signal (AID 1347427); conditions: biochemical UDG counterscreen, fluorescence signal; series mostly up to 115 µM; also: 0% is about no effect
The source made the active and inactive calls. Calls follow the shape of the dose curve; as a rule, active = well fitted curve in the direction sought with a large enough effect; inconclusive = small, poorly fitted or top-dose-only effect, or another doubt; inactive = no such curve, though single readings can be large or run the other way.
Permitted responses: 1.0 = active, 0.0 = inactive

- COMPOUND: "CCCN(CCC)[C@H]1CCc2c(F)ccc(O)c2C1"
  CLASS_LABEL: 0.0
- COMPOUND: "CCCN(CCC)C1Cc2cc(OC)c(OC)cc2C1"
  CLASS_LABEL: 0.0

Given CC(N)[C@H](O)c1ccc(O)c(O)c1 (stereo not given in full) , state the outcome it received in this test.
0.0

Input C=CCN1CC[C@]23c4c5ccc(O)c4O[C@H]2/C(=N/NC(=O)c2ccccc2)CC[C@@]3(O)[C@H]1C5
0.0

Same read-out for N[C@@]1(C(=O)O)CC[C@@H](C(=O)O)C1 ?
0.0

Try this compound too: Clc1ccc(N2CC3CCC(C2)N3)nn1
0.0

Note, next up: N[C@@H](CCl)C(=O)O
0.0

Then COc1ccc(OC)c(C(O)C(C)N)c1 (stereo not given) ?
0.0

Now give it for COc1ccc2c(c1)C13CCCCC1C(C2)N(C)CC3 (stereo not given) too.
0.0

Next compound up: CC(C)NP(=O)(NC(C)C)OP(=O)(NC(C)C)NC(C)C
0.0

Next compound: CCCN(CCC)C1CCc2cccc(O)c2C1 (stereo not given)
0.0

Request: Nc1ccc(CCN2CCN(c3cccc(C(F)(F)F)c3)CC2)cc1
0.0
